assayed.target: human TGFßRII (antigen of the Octet experiments) (human, UniProt P37173 23-166)
Sequence (P37173 23-166): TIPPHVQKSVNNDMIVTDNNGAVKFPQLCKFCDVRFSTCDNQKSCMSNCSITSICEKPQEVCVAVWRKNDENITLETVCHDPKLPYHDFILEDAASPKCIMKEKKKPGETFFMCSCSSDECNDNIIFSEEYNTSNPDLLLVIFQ
protocol: BLI (Octet)
Recorded pKd by entry
A value of pKd is the negative decimal logarithm of a concentration given in moles per litre.

* H1 L1.16 XENP34579 (antibody, V domains shown) VH: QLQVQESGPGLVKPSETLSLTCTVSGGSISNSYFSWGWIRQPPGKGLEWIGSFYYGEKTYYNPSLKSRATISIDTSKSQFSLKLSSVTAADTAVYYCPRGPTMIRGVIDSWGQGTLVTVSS VL: EIVLTQSPATLSLSPGERATLSCRASQSVRSYLSWYQQKPGQAPRLLIYDASNRATGIPARFSGSGSGTDFTLTISSLEPEDFAVYYCQQRSNWPPTFGQGTKVEIK | 9.33
* H1 L1.23 XENP34586 (antibody, V domains shown) VH: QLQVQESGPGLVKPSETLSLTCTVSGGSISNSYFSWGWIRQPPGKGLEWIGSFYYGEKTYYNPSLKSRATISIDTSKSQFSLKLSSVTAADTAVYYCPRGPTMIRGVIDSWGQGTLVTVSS VL: EIVLTQSPATLSLSPGERATLSCRASQSVRSYLAWYQQKPGQAPRLLIYDASDRATGIPARFSGSGSGTDFTLTISSLEPEDFAVYYCQQRSNWPPTFGQGTKVEIK | 9.32
* H1 L1.12 XENP34575 (antibody, V domains shown) VH: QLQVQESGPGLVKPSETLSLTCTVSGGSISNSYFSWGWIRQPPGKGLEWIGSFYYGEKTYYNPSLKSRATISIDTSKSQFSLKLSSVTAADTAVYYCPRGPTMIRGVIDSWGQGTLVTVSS VL: EIVLTQSPATLSLSPGERATLSCRASQSVRTYLAWYQQKPGQAPRLLIYDASNRATGIPARFSGSGSGTDFTLTISSLEPEDFAVYYCQQRSNWPPTFGQGTKVEIK | 9.27

Summary for this binder, H1 L1.26 XENP34589 (antibody, V domains shown) VH: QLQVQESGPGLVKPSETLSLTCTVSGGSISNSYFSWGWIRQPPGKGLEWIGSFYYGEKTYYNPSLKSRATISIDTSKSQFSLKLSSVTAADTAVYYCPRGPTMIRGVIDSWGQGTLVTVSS VL: EIVLTQSPATLSLSPGERATLSCRASQSVRSYLAWYQQKPGQAPRLLIYDASNRASGIPARFSGSGSGTDFTLTISSLEPEDFAVYYCQQRSNWPPTFGQGTKVEIK : pKd is 9.00

get_value(item= H1 L1.19 XENP34582 (antibody, V domains shown) VH: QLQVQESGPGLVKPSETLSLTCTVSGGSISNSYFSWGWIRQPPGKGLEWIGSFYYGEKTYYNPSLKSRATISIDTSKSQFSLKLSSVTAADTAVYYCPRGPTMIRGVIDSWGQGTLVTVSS VL: EIVLTQSPATLSLSPGERATLSCRASQSVRSYLAWYQQKPGLAPRLLIYDASNRATGIPARFSGSGSGTDFTLTISSLEPEDFAVYYCQQRSNWPPTFGQGTKVEIK , readout=pKd) returns 9.04

// data source = patent US20220144956A1
